Where these numbers come from: patent US20110092544A1

- System: Puccinia recondite f. sp. tritici
- test.summary: Test B: wheat leaf rust, preventive spray on wheat seedlings, visual disease rating
- Format: in vivo
- applied.conditions: 200 ppm, 100 = 100% disease control, 0 = no control
Outcome label depends on Test B rating (% disease control) relative to 90%: at/above gives Condition met, below gives Condition not met.

CCOC(=O)c1cnc(C)c(-c2ccccc2)c1-c1cc(OC)ccc1F
Condition not met
CCOC(=O)c1cnc(C)c(-c2ccccc2)c1-c1cc(OC)c(OC)c(OC)c1
Condition not met
CCOC(=O)c1cnc(C)c(-c2ccccc2)c1-c1cc(F)cc(F)c1
Condition not met

Field: next molecule
-- ask Hello, I need to know if CCc1ncc(C(C)C)c(-c2cc(OC)cc(OC)c2)c1-c1ccccc1 has measured Test B rating (% disease control) not below 90%. Thanks!
-- reply Condition not met

###

Test A rating (% disease control) overview
- System: Erysiphe graminis f. sp. tritici
- test.summary: Test A: wheat powdery mildew, preventive spray on wheat seedlings, visual disease rating
- Type: in vivo
- applied.conditions: 200 ppm, 100 = 100% disease control, 0 = no control
- Text: General protocol for preparing test suspensions for Tests A-H: The test compounds were first dissolved in acetone in an amount equal to 3% of the final volume and then suspended at the desired concentration (in ppm) in acetone and purified water (50/50 mix) containing 250 ppm of the surfactant Trem® 014 (polyhydric alcohol esters). […]
Could you give me the number in %? Just the number is fine.

CCOC(=O)c1cnc(C)c(-c2c(F)ccc(F)c2F)c1-c1cc(OC)cc(OC)c1
99
COc1cc(OC)cc(-c2c(COc3ccccc3)cnc(C)c2-c2c(F)cc(F)cc2F)c1
98
COc1ccc(-c2c(C)ncc(C(C)C)c2-c2cc(OC)cc(OC)c2)cc1
80
CCOC(=O)c1cnc(C)c(-c2ccccc2)c1-c1cc(OC)ccc1F
82
COc1cc(OC)cc(-c2c(C(C)(C)O)cnc(C)c2-c2c(F)ccc(OC)c2F)c1
96
COc1cc(OC)cc(-c2c(Cn3ccc(C(F)(F)F)n3)cnc(C)c2-c2c(F)cc(F)cc2F)c1
64

-- ask For C=C(C)c1cnc(C)c(-c2c(F)cc(F)cc2F)c1-c1cc(OC)cc(OC)c1 , write its Test A rating (% disease control).
-- reply 100

-- ask Provide only the value of recorded Test A rating (% disease control) for CCOC(=O)c1cnc(C)c(-c2ccccc2)c1-c1cc(F)cc(F)c1
-- reply 98

###

- Tested on: Septoria tritici
- test.summary: Test C: wheat leaf blotch, preventive spray on wheat seedlings, visual disease rating
- Type: in vivo
- applied.conditions: 40 ppm (compound number followed by *)
Here, each record is paired with measured Test C rating (% disease control) data.
Give just the number in %; leave the unit off.

COc1cc(OC)cc(-c2c(-c3c(F)cccc3F)cnc(Cl)c2-c2c(F)cccc2F)c1
0
CCC(C)c1cnc(C)c(-c2c(F)cc(F)cc2F)c1-c1cc(OC)cc(OC)c1 (centres unmarked)
94
COc1cc(OC)cc(-c2c(C3CCSCC3)cnc(C)c2-c2ccc(F)cc2)c1
96
COc1cc(OC)cc(-c2c(C(C)C)cnc(C)c2-c2c(F)cc(OC)cc2F)c1
96
COc1cc(OC)cc(-c2c(-c3cnc(OC)nc3OC)cnc(C)c2-c2c(F)cc(F)cc2F)c1
0

-- ask Please indicate Test C rating (% disease control) recorded for COc1cc(OC)cc(-c2c(-c3ccc(F)cc3)cnc(C)c2-c2c(F)cc(F)cc2F)c1
-- reply 93

-- ask Note Test C rating (% disease control) for the molecule shown: COc1cc(OC)cc(-c2c(C(C)CO)cnc(C)c2-c2c(F)cccc2F)c1 (centres unmarked)
-- reply 90

-- ask Please indicate Test C rating (% disease control) recorded for COc1cc(OC)cc(-c2c(-c3ccc(Cl)nc3)cnc(C)c2-c2c(F)cc(F)cc2F)c1
-- reply 99
